tested on: Schistosoma mansoni; test: Probability that there was effect on carbachol response; format: functional
Recorded Probability for the following compounds

Fill blank: measured Probability of the compound Br.Br.CCCCNCCC[PH](c1ccccc1)(c1ccccc1)c1ccccc1 is ____.
<0.001

Fill blank: measured Probability of the compound Br.Br.CCCCCNCCC[PH](c1ccccc1)(c1ccccc1)c1ccccc1 is ____.
<0.001

Fill blank: measured Probability of the compound CC[P+](c1ccccc1)(c1ccccc1)c1ccccc1.[Br-] [ETHYLTRIPHENYLPHOSPHONIUM BROMIDE] is ____.
<0.02

Fill blank: measured Probability of the compound [Br-].[Br-].c1ccc([P+](CCCCC[P+](c2ccccc2)(c2ccccc2)c2ccccc2)(c2ccccc2)c2ccccc2)cc1 is ____.
<0.001

Fill blank: measured Probability of the compound [Br-].c1ccc(C[P+](c2ccccc2)(c2ccccc2)c2ccccc2)cc1 is ____.
<0.05

Continuing:
Fill blank: measured Probability of the compound [Br-].[Br-].c1ccc([P+](CCC[P+](c2ccccc2)(c2ccccc2)c2ccccc2)(c2ccccc2)c2ccccc2)cc1 is ____.
<0.001
